Target: T1, fluorescently quenched α-gliadin hexapeptide analogue QXL520-PQPQLP-K(5-FAM)-NH2
T1 chain: PQPQLP
PROPERTY MEASURED: Fold Change in Activity of PQ Hydrolysis Relative to Wild Type Kumamolysin-As (fold)
// return numeric value only (unit: fold, not printed)

Input: I would be grateful if you could share the reported Fold Change in Activity of PQ Hydrolysis Relative to Wild Type Kumamolysin-As for Kumamolisin-As N291D, D358N (protein) AAPTAYTPLDVAQAYQFPEGLDGQGQCIAIIELGGGYDEASLAQYFASLGVPAPQVVSVSVDGASNQPTGDPSGPDGEVELDIEVAGALAPGAKFAVYFAPDTDAGFLDAITTAIHDPTLKPSVVSISWGGPEDSWTSAAIAAMNRAFLDAAALGVTVLAAAGDSGSTNGEQDGLYHVDFPAASPYVLACGGTRLVASGGRIAQETVWNDGPDGGATGGGVSRIFPLPAWQEHANVPPSANPGASSGRGVPDLAGNADPATGYEVVIDGEATVIGGTSAVAPLFAALVARINQKLGKAVGYLNPTLYQLPADVFHDITEGNNDIANRAQIYQAGPGWDPCTGLGSPIGVRLLQALLPSASQPQPGSTENLYFQSGALEHHHHHH .
Output: 18.9

Input: What about this protein? Kumamolisin-As N291D, D293A, D358G, Q361D (protein) AAPTAYTPLDVAQAYQFPEGLDGQGQCIAIIELGGGYDEASLAQYFASLGVPAPQVVSVSVDGASNQPTGDPSGPDGEVELDIEVAGALAPGAKFAVYFAPDTAAGFLDAITTAIHDPTLKPSVVSISWGGPEDSWTSAAIAAMNRAFLDAAALGVTVLAAAGDSGSTGGEDDGLYHVDFPAASPYVLACGGTRLVASGGRIAQETVWNDGPDGGATGGGVSRIFPLPAWQEHANVPPSANPGASSGRGVPDLAGNADPATGYEVVIDGEATVIGGTSAVAPLFAALVARINQKLGKAVGYLNPTLYQLPADVFHDITEGNNDIANRAQIYQAGPGWDPCTGLGSPIGVRLLQALLPSASQPQPGSTENLYFQSGALEHHHHHH
Output: 15

Input: What about this protein? Kumamolisin-As S262K, D293N, N291D, G319S, D358G, D368H (protein) AAPTAYTPLDVAQAYQFPEGLDGQGQCIAIIELGGGYDEASLAQYFASLGVPAPQVVSVSVDGASNQPTGDPKGPDGEVELDIEVAGALAPGAKFAVYFAPDTNAGFLDAITTAIHDPTLKPSVVSISWSGPEDSWTSAAIAAMNRAFLDAAALGVTVLAAAGDSGSTGGEQDGLYHVHFPAASPYVLACGGTRLVASGGRIAQETVWNDGPDGGATGGGVSRIFPLPAWQEHANVPPSANPGASSGRGVPDLAGNADPATGYEVVIDGEATVIGGTSAVAPLFAALVARINQKLGKAVGYLNPTLYQLPADVFHDITEGNNDIANRAQIYQAGPGWDPCTGLGSPIGVRLLQALLPSASQPQPGSTENLYFQSGALEHHHHHH
Output: 62
